- Tested on: Neisseria gonorrhoeae
- Protocol Description: Antibacterial activity against Neisseria gonorrhoeae ATCC 49226 assessed as reduction in bacterial growth incubated for 20 to 24 hrs by CLSI-based protocol based two-fold serial microdilution method
- Assay type: functional
- Experimental Conditions: time 20-24 hrs
Reported Property: MIC (µM)
Express your answer in µM, writing the number without its unit.

Examples with answers:
Compound	Reported Property	Unit Label	Result
Oc1c(I)cc(Cl)c2cccnc12 [CLIOQUINOL]	MIC	µM	0.28
Oc1c(Cl)cc(Cl)c2cccnc12 [CHLOROXINE]	MIC	µM	0.28
Oc1cccc2cccnc12 [OXYQUINOLINE]	MIC	µM	0.08

Note: attention shifts to another entry.
So what's the measured MIC for this one? Oc1c(I)cc(I)c2cccnc12 [IODOQUINOL]
0.1
